src = patent US20070207984A1

Tested on: HSP-90 (heat shock protein 90)
Assay: Determination of affinity for HSP-90 (elution from purine affinity column)
Assay type: binding
Design: key: A stands for very high; B for high; C for moderate
Settings: purine affinity column loaded with organ tissue proteins; eluted with 20μM, 100 μM, and 500 μM of test compound; densitometry
MEASURED ENDPOINT: relative binding affinity to HSP-90

molecule="CC1(C)CC(=O)c2c(C(F)(F)F)nn(-c3ccc(C(N)=O)c(NC4CCC(OC(=O)[C@@H](N)CCCCN)CC4)c3)c2C1.CS(=O)(=O)O.CS(=O)(=O)O (stereo partly drawn)" result=A
molecule="Cc1nn(-c2ccc(C(N)=O)c(NC3CCC(OC(=O)CCNC(=O)OC(C)(C)C)CC3)c2)c2c1C(=O)CC(C)(C)C2 (stereo not drawn) [drawing 94]" result=A
molecule="CS(=O)(=O)O.Cc1nn(-c2ccc(C(N)=O)c(NC3CCC(OC(=O)CCN)CC3)c2)c2c1C(=O)CC(C)(C)C2 (stereo not drawn)" result=A
molecule="CC1(C)CC(=O)c2c(C(F)F)nn(-c3ccc(C(N)=O)c(N[C@H]4CC[C@H](O)CC4)c3)c2C1 [drawing 91]" result=A
molecule="Cc1nn(-c2ccc(C#N)c(Br)c2)c2c1C(=O)CC(C)(C)C2 [drawing 95]" result=C

Next up:
Kindly note the recorded relative binding affinity to HSP-90 for CC1(C)CC(=O)c2c(C(F)(F)F)nn(-c3ccc(C(N)=O)c(NC4CCC(OC(=O)CCNC(=O)[C@@H](N)CCCN)CC4)c3)c2C1.CS(=O)(=O)O.CS(=O)(=O)O (stereo partly drawn) , which is A
